Below, each entry is listed alongside its reported Ki.
Molecular target: human leukocyte elastase (HLE) (Homo sapiens)
Test: Inhibition of human leukocyte elastase: rate of inactivation kon and inhibition constant Ki* (koff/kon)
Assay type: biochemical
Settings: Ki* = koff/kon, calculated from measured koff and kon; not a truly reversible Ki; read-out: K*i
Structures can show the parent of a compound that is named as a salt.

{"molecule": "CC(C)c1cccc2c1C(=O)N(COC(=O)c1c(Cl)cc(OCCN3CCOCC3)cc1Cl)S2(=O)=O", "tested_system": "human leukocyte elastase (HLE) (Homo sapiens)", "measurement_kind": "Ki", "measured_result": "0.025 nM"}
{"molecule": "COc1cc(C(C)C)c2c(c1)S(=O)(=O)N(COC(=O)c1c(OC)cccc1OC)C2=O", "tested_system": "human leukocyte elastase (HLE) (Homo sapiens)", "measurement_kind": "Ki", "measured_result": "0.088 nM"}
{"molecule": "COc1ccc(C(=O)OCN2C(=O)c3ccccc3S2(=O)=O)c(OC)c1", "tested_system": "human leukocyte elastase (HLE) (Homo sapiens)", "measurement_kind": "Ki", "measured_result": "18 nM"}
{"molecule": "CC(C)c1cc(-c2cccn2C)cc2c1C(=O)N(COC(=O)c1c(Cl)cccc1Cl)S2(=O)=O", "tested_system": "human leukocyte elastase (HLE) (Homo sapiens)", "measurement_kind": "Ki", "measured_result": "0.2 nM"}

### Prompt Which value of Ki has been reported for `CC(C)c1cccc2c1C(=O)N(COC(=O)c1c(F)ccc(S(=O)(=O)N3CCN(C)CC3)c1F)S2(=O)=O` in the records?
### Response 0.01 nM

### Prompt Name the reported Ki value associated with the molecule `Cc1cccc(C)c1C(=O)OCN1C(=O)c2c(C(C)C)cccc2S1(=O)=O`
### Response 0.09 nM

### Prompt Bench note: what Ki did `CC(C)c1cc2c(c3c1C(=O)N(COC(=O)c1c(Cl)ccc(S(=O)(=O)N4CCN(C)CC4)c1Cl)S3(=O)=O)OCO2` show?
### Response 0.029 nM

### Prompt # lookup: Ki of `COc1cc(C(C)C)c2c(c1)S(=O)(=O)N(COC(=O)c1c(Cl)ccc(S(=O)(=O)NCC(=O)O)c1Cl)C2=O`
### Response 0.008 nM

### Prompt Item under review: `CC(C)c1cccc2c1C(=O)N(COC(=O)c1c(Cl)ccc(OCc3ccccc3)c1Cl)S2(=O)=O` . Reported Ki?
### Response 0.12 nM

### Prompt # Ki lookup, item `CN(C)c1cccc2c1C(=O)N(COC(=O)c1c(Cl)cccc1Cl)S2(=O)=O`
### Response 0.2 nM

### Prompt Recorded Ki of `CC(C)c1cc2c(c3c1C(=O)N(COC(=O)c1c(Cl)cccc1Cl)S3(=O)=O)OCO2` , please.
### Response 0.043 nM

### Prompt Entry `CC(C)c1cc(O)cc2c1C(=O)N(COC(=O)c1c(Cl)cccc1Cl)S2(=O)=O` has what Ki?
### Response 0.4 nM

### Prompt Return reported Ki; argument: `CCOc1cc(C(C)C)c2c(c1)S(=O)(=O)N(COC(=O)c1c(Cl)ccc(OCCN3CCOCC3)c1Cl)C2=O`
### Response 0.033 nM

### Prompt Quick one: Ki of `COc1cc(C(C)C)c2c(c1)S(=O)(=O)N(COC(=O)c1ccccc1C(C)C)C2=O` ?
### Response 0.036 nM

### Prompt Data request, read-out Ki, for CC(C)c1cccc2c1C(=O)N(COC(=O)c1c(Cl)ccc(S(=O)(=O)N3CCNCC3)c1Cl)S2(=O)=O [Example 2B, hydrochloride]
### Response 0.02 nM

### Prompt Entry `COc1cc(C(C)C)c2c(c1)S(=O)(=O)N(COC(=O)c1c(OC)ccc([N+](=O)[O-])c1OC)C2=O` : reported Ki = ?
### Response 0.025 nM

====

Target: human leukocyte elastase (HLE) (Homo sapiens, UniProt P08246)
Sequence (P08246 30-267): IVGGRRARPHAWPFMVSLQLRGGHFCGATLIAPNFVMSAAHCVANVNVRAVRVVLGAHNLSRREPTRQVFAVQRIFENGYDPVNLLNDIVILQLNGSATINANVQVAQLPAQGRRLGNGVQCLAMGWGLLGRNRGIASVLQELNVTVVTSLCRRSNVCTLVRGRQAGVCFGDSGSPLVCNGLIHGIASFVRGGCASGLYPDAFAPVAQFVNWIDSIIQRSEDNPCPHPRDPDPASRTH
Test: Inhibition of human leukocyte elastase: rate of inactivation kon and inhibition constant Ki* (koff/kon)
Type: biochemical
Conditions: Ki* = koff/kon, calculated from measured koff and kon; not a truly reversible Ki; read-out: K*i
measurement_kind: Ki (nM)
Reply with just the number (in nM).

### Prompt Under human leukocyte elastase (HLE) (Homo sapiens, UniProt P08246): Ki value of `COc1cc2c(c(C(C)C)c1OC)C(=O)N(COC(=O)c1c(Cl)cccc1Cl)S2(=O)=O` ?
### Response 0.35

### Prompt Provide value of Ki for this record tested with human leukocyte elastase (HLE) (Homo sapiens, UniProt P08246): `COc1cc(F)c(C(=O)OCN2C(=O)c3c(C(C)C)cc(OC)cc3S2(=O)=O)c(F)c1`
### Response 0.068

### Prompt What reported Ki corresponds to `COc1cc(C(C)C)c2c(c1)S(=O)(=O)N(COC(=O)c1c(Cl)ccc(OCCN(C)C)c1Cl)C2=O` on human leukocyte elastase (HLE) (Homo sapiens, UniProt P08246)?
### Response 0.013

### Prompt Missing value: Ki, human leukocyte elastase (HLE) (Homo sapiens, UniProt P08246), entry `O=C(OCN1C(=O)c2ccccc2S1(=O)=O)c1c2ccccc2cc2ccccc12` . Fill in?
### Response 2.1

### Prompt I'm curious: which Ki was measured for `O=C(OCN1C(=O)c2ccccc2S1(=O)=O)c1c(Cl)ccc(S(=O)(=O)N2CCOCC2)c1Cl` tested on human leukocyte elastase (HLE) (Homo sapiens, UniProt P08246)?
### Response 2

### Prompt Short answer please: Ki, human leukocyte elastase (HLE) (Homo sapiens, UniProt P08246), entry `CC(C)c1cc(OCC(=O)OCc2ccccc2)cc2c1C(=O)N(COC(=O)c1c(Cl)cccc1Cl)S2(=O)=O`
### Response 0.056

### Prompt Query the reported Ki for human leukocyte elastase (HLE) (Homo sapiens, UniProt P08246); item: `COc1cc(C(C)C)c2c(c1)S(=O)(=O)N(COC(=O)c1c(C)cc(OCc3ccccc3)cc1C)C2=O`
### Response 0.3

### Prompt Fill in the recorded Ki for this molecule, with human leukocyte elastase (HLE) (Homo sapiens, UniProt P08246) as test system: `CC(C)c1cccc2c1C(=O)N(COC(=O)c1cccc3ccccc13)S2(=O)=O`
### Response 0.48

### Prompt Given the entry `CC(C)c1cc2c(c3c1C(=O)N(COC(=O)c1c(Cl)ccc(OCCN4CCOCC4)c1Cl)S3(=O)=O)OCO2` , what Ki was observed with human leukocyte elastase (HLE) (Homo sapiens, UniProt P08246)?
### Response 0.029

### Prompt Requested read-out Ki, target or system human leukocyte elastase (HLE) (Homo sapiens, UniProt P08246), entry `CCN(CC)CCOc1ccc(Cl)c(C(=O)OCN2C(=O)c3c(C(C)C)cc(OC)cc3S2(=O)=O)c1Cl`
### Response 0.023

### Prompt Reported Ki for human leukocyte elastase (HLE) (Homo sapiens, UniProt P08246), given `CC(C)c1cccc2c1C(=O)N(COC(=O)c1c(Cl)ccc(S(=O)(=O)NCC(=O)O)c1Cl)S2(=O)=O` ?
### Response 0.01

====

Some compounds, each annotated with its measured log10 Ki.
Target: human leukocyte elastase (HLE) (Homo sapiens, UniProt P08246)
Assay: Inhibition of human leukocyte elastase: rate of inactivation kon and inhibition constant Ki* (koff/kon)
Format: biochemical
Conditions: Ki* = koff/kon, calculated from measured koff and kon; not a truly reversible Ki; read-out: K*i
The common logarithm of Ki in pM is what is listed.

{"compound": "COCCOCCOc1cc(C(C)C)c2c(c1)S(=O)(=O)N(COC(=O)c1c(Cl)cccc1Cl)C2=O", "measurement_kind": "log10 Ki", "measured_result": 1.48}

### Prompt Query: log10 Ki; subject: `CC(C)c1cccc2c1C(=O)N(COC(=O)c1c(Cl)ccc(S(=O)(=O)N(C)CCN(C)C)c1Cl)S2(=O)=O`
### Response 1.00

### Prompt Quick one: log10 Ki for `COC(=O)COc1cc(C(C)C)c2c(c1)S(=O)(=O)N(COC(=O)c1c(Cl)cccc1Cl)C2=O` ?
### Response 1.23

### Prompt Find the recorded log10 Ki belonging to `CCOc1cc(C(C)C)c2c(c1)S(=O)(=O)N(COC(=O)c1c(Cl)cccc1Cl)C2=O` and report it.
### Response 1.70

### Prompt Form field: reported log10 Ki of CC(C)c1cc(OCC(O)CO)cc2c1C(=O)N(COC(=O)c1c(Cl)cccc1Cl)S2(=O)=O (centres unmarked)
### Response 1.20

### Prompt Using the record for `O=C(O)CNS(=O)(=O)c1ccc(Cl)c(C(=O)OCN2C(=O)c3ccccc3S2(=O)=O)c1Cl` , report its log10 Ki.
### Response 3.60

====

Target: human leukocyte elastase (HLE) (Homo sapiens)
Experiment: Inhibition of human leukocyte elastase: rate of inactivation kon and inhibition constant Ki* (koff/kon)
Type: biochemical
Conditions: Ki* = koff/kon, calculated from measured koff and kon; not a truly reversible Ki; read-out: K*i
# reported log10 of Ki; entries follow
Form field - Quantity: Ki; Unit: pM; Scale: log10

{"molecule": "COc1cc(Cl)c(C(=O)OCN2C(=O)c3c(C(C)C)cccc3S2(=O)=O)c(Cl)c1", "log10 of Ki": 1.40}
{"molecule": "CCCc1c(OC)c(OC)cc2c1C(=O)N(COC(=O)c1c(Cl)ccc(OCCN3CCOCC3)c1Cl)S2(=O)=O", "log10 of Ki": 1.85}
{"molecule": "COc1cc(C(C)C)c2c(c1)S(=O)(=O)N(COC(=O)c1c(OC)cc(OCc3ccccc3)cc1OC)C2=O", "log10 of Ki": 2.54}
{"molecule": "CC(C)c1cccc2c1C(=O)N(COC(=O)c1c(Cl)ccc(S(=O)(=O)N3CCN(Cc4ccccc4)CC3)c1Cl)S2(=O)=O", "log10 of Ki": 1.78}
{"molecule": "COCC(COc1cc(C(C)C)c2c(c1)S(=O)(=O)N(COC(=O)c1c(Cl)cccc1Cl)C2=O)OC (racemic)", "log10 of Ki": 1.43}

### Prompt Fill in: log10 of Ki of `CC(C)c1cc(OCC(=O)OC(C)(C)C)cc2c1C(=O)N(COC(=O)c1c(Cl)cccc1Cl)S2(=O)=O` is ___
### Response 1.90

### Prompt Query (molecule): `CC(C)Oc1cc(C(C)C)c2c(c1)S(=O)(=O)N(COC(=O)c1c(Cl)cccc1Cl)C2=O` ; field requested: log10 of Ki
### Response 1.76

### Prompt # lookup: log10 of Ki of `CC(C)c1cccc2c1C(=O)N(COC(=O)c1cccc(OCc3ccccc3)c1)S2(=O)=O`
### Response 2.70
